I'd be grateful if you could share measured MIC of Aztreonam + compound for these entries.
# System: P. aeruginosa
# ASSAY: Checkerboard assay (antibiotic + adjuvant combination MIC)
# Assay type: cell-based, Pseudomonas aeruginosa
# PROTOCOL_CONDITIONS: P. aeruginosa PAO1; compound at 8 μM
Numbers only, in µg/mL.

Example entries and their recorded answers appear below.
- QUERY_SMILES: "Cl.Cl.Cl.Cl.Cl.NC[C@H]1O[C@H](O[C@H]2[C@H](OCCCCCCCCCCCCN3CCN(c4cc5c(cc4F)c(=O)c(C(=O)O)cn5C4CC4)CC3)[C@@H](O)[C@H](N)C[C@@H]2N)[C@H](N)C[C@@H]1O"
  TESTED_SYSTEM: "P. aeruginosa"
  OBSERVED_PROPERTY: "MIC of Aztreonam + compound"
  VALUE_UNIT: "µg/mL"
  NUMERIC_READOUT: 0.5
- QUERY_SMILES: "N=C(N)NC[C@H]1O[C@H](O[C@H]2[C@H](OCCCCCCCCCCCCN3CCN(c4cc5c(cc4F)c(=O)c(C(=O)O)cn5C4CC4)CC3)[C@@H](O[C@H]3O[C@H](CO)[C@@H](O)[C@H](NC(=N)N)[C@H]3O)[C@H](NC(=N)N)C[C@@H]2NC(=N)N)[C@H](NC(=N)N)C[C@@H]1O"
  TESTED_SYSTEM: "P. aeruginosa"
  OBSERVED_PROPERTY: "MIC of Aztreonam + compound"
  VALUE_UNIT: "µg/mL"
  NUMERIC_READOUT: 0.5
- QUERY_SMILES: "NC[C@H]1O[C@H](O[C@H]2[C@H](OCCCCc3cn(CCCCO[C@@H]4[C@@H](O)[C@H](N)C[C@H](N)[C@H]4O[C@H]4O[C@H](CN)[C@@H](O)C[C@H]4N)nn3)[C@@H](O)[C@H](N)C[C@@H]2N)[C@H](N)C[C@@H]1O"
  TESTED_SYSTEM: "P. aeruginosa"
  OBSERVED_PROPERTY: "MIC of Aztreonam + compound"
  VALUE_UNIT: "µg/mL"
  NUMERIC_READOUT: 1

Per the record, `Cl.Cl.Cl.Cl.Cl.Cl.NC[C@H]1O[C@H](O[C@H]2[C@H](OCCCCCCCCCCCCN3CCN(c4cc5c(cc4F)c(=O)c(C(=O)O)cn5C4CC4)CC3)[C@@H](O[C@H]3O[C@H](CO)[C@@H](O)[C@H](N)[C@H]3O)[C@H](N)C[C@@H]2N)[C@H](N)C[C@@H]1O` has MIC of Aztreonam + compound of 0.25

###

# Test system: P. aeruginosa
# ASSAY: Checkerboard assay (antibiotic + adjuvant combination MIC)
# Format: cell-based, Pseudomonas aeruginosa
# PROTOCOL_CONDITIONS: PA 91433; compound at 8 μM
Answer each item with its documented MIC of ATM in the presence of compound.
Numbers only, in µg/mL.

Hey, quick one: what's MIC of ATM in the presence of compound for each of these?
1. Cl.Cl.Cl.Cl.Cl.NC[C@H]1O[C@H](O[C@H]2[C@H](OCCCCCCCCCCCCN3CCN(c4cc5c(cc4F)c(=O)c(C(=O)O)cn5C4CC4)CC3)[C@@H](O)[C@H](N)C[C@@H]2N)[C@H](N)C[C@@H]1O
2. N=C(N)NC[C@H]1O[C@H](O[C@H]2[C@H](OCCCCCCCCCCCCN3CCN(c4cc5c(cc4F)c(=O)c(C(=O)O)cn5C4CC4)CC3)[C@@H](O[C@H]3O[C@H](CO)[C@@H](O)[C@H](NC(=N)N)[C@H]3O)[C@H](NC(=N)N)C[C@@H]2NC(=N)N)[C@H](NC(=N)N)C[C@@H]1O
3. Cl.Cl.Cl.Cl.Cl.Cl.NC[C@H]1O[C@H](O[C@H]2[C@H](OCCCCCCCCCCCCN3CCN(c4cc5c(cc4F)c(=O)c(C(=O)O)cn5C4CC4)CC3)[C@@H](O[C@H]3O[C@H](CO)[C@@H](O)[C@H](N)[C@H]3O)[C@H](N)C[C@@H]2N)[C@H](N)C[C@@H]1O
4. NC[C@H]1O[C@H](O[C@H]2[C@H](OCCCCc3cn(CCCCO[C@@H]4[C@@H](O)[C@H](N)C[C@H](N)[C@H]4O[C@H]4O[C@H](CN)[C@@H](O)C[C@H]4N)nn3)[C@@H](O)[C@H](N)C[C@@H]2N)[C@H](N)C[C@@H]1O

1: 8; 2: 16; 3: 4; 4: 2

###

# System: P. aeruginosa
# ASSAY: Checkerboard assay (antibiotic + adjuvant combination MIC)
# Assay type: cell-based, Pseudomonas aeruginosa
# PROTOCOL_CONDITIONS: PA 262-101856; compound at 8 μM
OBSERVED_PROPERTY: MIC of ATM in the presence of compound (µg/mL)
Give bare numbers, in µg/mL.

- COMPOUND: "NC[C@H]1O[C@H](O[C@H]2[C@H](OCCCCc3cn(CCCCO[C@@H]4[C@@H](O)[C@H](N)C[C@H](N)[C@H]4O[C@H]4O[C@H](CN)[C@@H](O)C[C@H]4N)nn3)[C@@H](O)[C@H](N)C[C@@H]2N)[C@H](N)C[C@@H]1O [Compound 26, Nebramine Homodimer]"
  MIC of ATM in the presence of compound (µg/mL): 16
- COMPOUND: "N=C(N)NC[C@H]1O[C@H](O[C@H]2[C@H](OCCCCCCCCCCCCN3CCN(c4cc5c(cc4F)c(=O)c(C(=O)O)cn5C4CC4)CC3)[C@@H](O[C@H]3O[C@H](CO)[C@@H](O)[C@H](NC(=N)N)[C@H]3O)[C@H](NC(=N)N)C[C@@H]2NC(=N)N)[C@H](NC(=N)N)C[C@@H]1O [Compound 27]"
  MIC of ATM in the presence of compound (µg/mL): 32
- COMPOUND: "Cl.Cl.Cl.Cl.Cl.NC[C@H]1O[C@H](O[C@H]2[C@H](OCCCCCCCCCCCCN3CCN(c4cc5c(cc4F)c(=O)c(C(=O)O)cn5C4CC4)CC3)[C@@H](O)[C@H](N)C[C@@H]2N)[C@H](N)C[C@@H]1O [Compound 24]"
  MIC of ATM in the presence of compound (µg/mL): 16

Now let's try a different one.
# compound Cl.Cl.Cl.Cl.Cl.Cl.NC[C@H]1O[C@H](O[C@H]2[C@H](OCCCCCCCCCCCCN3CCN(c4cc5c(cc4F)c(=O)c(C(=O)O)cn5C4CC4)CC3)[C@@H](O[C@H]3O[C@H](CO)[C@@H](O)[C@H](N)[C@H]3O)[C@H](N)C[C@@H]2N)[C@H](N)C[C@@H]1O [Compound 21, Tobramycin-ciprofloxacin] ; its MIC of ATM in the presence of compound = 4

###

# Test system: P. aeruginosa
# ASSAY: Checkerboard assay (antibiotic + adjuvant combination MIC)
# Type: cell-based, Pseudomonas aeruginosa
# PROTOCOL_CONDITIONS: PA O200 (efflux-deficient); compound at 8 μM
Assign MIC of IPM in the presence of compound to each entry below.
Give bare numbers, in µg/mL.

- COMPOUND: "Cl.Cl.Cl.Cl.Cl.NC[C@H]1O[C@H](O[C@H]2[C@H](OCCCCCCCCCCCCN3CCN(c4cc5c(cc4F)c(=O)c(C(=O)O)cn5C4CC4)CC3)[C@@H](O)[C@H](N)C[C@@H]2N)[C@H](N)C[C@@H]1O [Compound 24]"
  OBSERVED_PROPERTY: "MIC of IPM in the presence of compound"
  NUMERIC_READOUT: 1
- COMPOUND: "N=C(N)NC[C@H]1O[C@H](O[C@H]2[C@H](OCCCCCCCCCCCCN3CCN(c4cc5c(cc4F)c(=O)c(C(=O)O)cn5C4CC4)CC3)[C@@H](O[C@H]3O[C@H](CO)[C@@H](O)[C@H](NC(=N)N)[C@H]3O)[C@H](NC(=N)N)C[C@@H]2NC(=N)N)[C@H](NC(=N)N)C[C@@H]1O [Compound 27]"
  OBSERVED_PROPERTY: "MIC of IPM in the presence of compound"
  NUMERIC_READOUT: 2

// batch mode: one MIC of IPM in the presence of compound value per listed entry
1. NC[C@H]1O[C@H](O[C@H]2[C@H](OCCCCc3cn(CCCCO[C@@H]4[C@@H](O)[C@H](N)C[C@H](N)[C@H]4O[C@H]4O[C@H](CN)[C@@H](O)C[C@H]4N)nn3)[C@@H](O)[C@H](N)C[C@@H]2N)[C@H](N)C[C@@H]1O [Compound 26, Nebramine Homodimer]
2. Cl.Cl.Cl.Cl.Cl.Cl.NC[C@H]1O[C@H](O[C@H]2[C@H](OCCCCCCCCCCCCN3CCN(c4cc5c(cc4F)c(=O)c(C(=O)O)cn5C4CC4)CC3)[C@@H](O[C@H]3O[C@H](CO)[C@@H](O)[C@H](N)[C@H]3O)[C@H](N)C[C@@H]2N)[C@H](N)C[C@@H]1O [Compound 21, Tobramycin-ciprofloxacin]

1
1
